Species: Bos taurus
Test: Activity at calf intestinal adenosine deaminase type 1 by spectrophotometric assay
Active and inactive are the calls of the source. The calls are words filed in the database; no cut-off is given here.
PROPERTY MEASURED: Km

Use these answered entries as a reference point.
> print(dat)
                            compound.string  result.value
1  C[C@H](O)[C@H]1O[C@@H](n2cnc3c(N)ncnc32)[C@H](O)[C@H]1O        320 µM
2  C[C@@H](O)[C@@H]1O[C@@H](n2cnc3c(N)ncnc32)[C@H](O)[C@@H]1O      inactive
3  C[C@@H](O)[C@@H]1O[C@@H](n2cnc3c(N)ncnc32)[C@H](O)[C@H]1O        230 µM
4  C[C@H](O)[C@H]1O[C@@H](n2cnc3c(N)ncnc32)[C@H](O)[C@@H]1O         21 µM

Report Km for every entry below.
1. C[C@@H](O)[C@H]1O[C@H](n2cnc3c(N)ncnc32)[C@@H](O)[C@@H]1O
2. Nc1ncnc2c1ncn2[C@@H]1O[C@H]([C@@H](O)CO)[C@H](O)[C@H]1O
3. C[C@@H](O)[C@@H]1O[C@H](n2cnc3c(N)ncnc32)[C@@H](O)[C@@H]1O
4. Nc1ncnc2c1ncn2[C@@H]1O[C@@H]([C@@H](O)CO)[C@@H](O)[C@H]1O
5. C[C@H](O)[C@@H]1O[C@H](n2cnc3c(N)ncnc32)[C@@H](O)[C@@H]1O

["inactive", "260 µM", "inactive", "280 µM", "inactive"]
